# SYSTEM UNDER TEST: T1, recombinant human full-length TDP-43 (TAR DNA-binding protein 43), soluble (human, UniProt Q13148 1-414)
# T1 construct: Used on Luminex beads, coated on ELISA plates, and immobilized or injected in SPR; also called FL TDP-43; TDP-43 protein
# T1 sequence (Q13148 whole entry): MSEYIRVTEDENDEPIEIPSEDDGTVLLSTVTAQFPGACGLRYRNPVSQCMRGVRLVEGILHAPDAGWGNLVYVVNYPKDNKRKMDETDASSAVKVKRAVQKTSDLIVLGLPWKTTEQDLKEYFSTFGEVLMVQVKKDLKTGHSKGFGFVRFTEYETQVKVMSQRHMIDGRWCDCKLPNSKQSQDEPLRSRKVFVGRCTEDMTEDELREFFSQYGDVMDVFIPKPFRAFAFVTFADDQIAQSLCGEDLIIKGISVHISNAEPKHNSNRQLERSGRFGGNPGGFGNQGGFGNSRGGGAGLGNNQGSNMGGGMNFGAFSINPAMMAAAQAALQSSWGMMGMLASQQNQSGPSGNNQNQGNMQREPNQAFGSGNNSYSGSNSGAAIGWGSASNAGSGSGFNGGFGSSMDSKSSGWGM
# ASSAY PROCEDURE: SPR 8K, immobilized soluble TDP-43
Documented koff across a set of binders
API: value field is a number in s⁻¹; no unit string.

Consider the worked cases shown below.
hACI-7069-633B12-Ab1_H15L14 (IgG4) (antibody, V domains shown) VH: QVQLVQSGAEVKKPGASVKVSCKASGFTFTEYSMHWVRQAPGQRLEWMGGINPGNAGTSYNQKFKGRVTITVDTSASTAYMELSSLRSEDTAVYYCARESWGQGTTVTVSS VL: DVVMTQSPLSLPVTLGQPASISCKSSQSLLHSDAKTYLNWLQQRPGQSPRRLIYLVSKLDSGVPDRFSGSGSGTDFTLKISRVEAEDLGVYYCFQGTHFPHTFGQGTKLEIK; 3.5e-05
hACI-7069-633B12-Ab1_H17L14 (IgG4) (antibody, V domains shown) VH: QVQLVQSGAEVKKPGASVKVSCKASGFTFTEYSMHWVKQAPGQRLEWMGGINPGNAGTSYNQKFKGRVTITVDTSASTAYMELSSLRSEDTAVYYCARESWGQGTTVTVSS VL: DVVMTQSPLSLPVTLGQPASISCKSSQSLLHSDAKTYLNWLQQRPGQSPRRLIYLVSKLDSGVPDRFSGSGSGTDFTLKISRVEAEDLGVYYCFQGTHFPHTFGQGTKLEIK; 4.2e-05

// next item, koff requested
# lookup: koff of hACI-7069-633B12-Ab1_H20L18 (IgG4) (antibody, V domains shown) VH: EVQLVQSGAEVKKPGASVKVSCKTSGFTFTEYSMHWVRQAPGQRLEWIGGINPGNAGTSYNQKFKGRVTITVDTSASTAYMELSSLRSEDTAVYYCARESWGQGTTVTVSS VL: DVVMTQSPLSLPVTLGQPASISCKSSQSLLHSDAKTYLNWLQQRPGQSPRRLIYLVSKLDSRVPDRFSGSGSGTDFTLKISRVEAEDLGVYYCFQGTHFPHTFGQGTKLEIK
1.4e-05
